- Tested on: OVCAR-5 ovarian
- assay.summary: NCI-60 one-dose screen, 48 h (100 = growth as untreated, 0 = no growth, -100 = all killed)
- run.parameters: 10 µM unless noted
The panel holds about 83,000 compounds, 20% with a hit somewhere; the sample as a whole holds those more often.
Values of growth strictly less than 60% map to Satisfied, and values of at least 60% map to Not satisfied.

Take a look at these entries with their results.
COc1ccc2cc(-c3cnc4nonc4n3)ccc2c1 : Not satisfied
COc1cc(/C=C/c2cc(/C=C/c3ccc(O)c(OC)c3)n(C(=O)Nc3ccc(F)cc3)n2)ccc1O : Satisfied

Input line: API: query returns whether the compound falls strictly under 60% in growth. Query: Cc1ccc(N=Nc2c(N)nn(-c3ccccc3)c2N)cc1
Output line: Satisfied

Input line: Please determine if N=C(N)c1ccc(-c2ccc(-c3ccc(Cl)cc3Cl)s2)cc1F is below 60% in terms of growth.
Output line: Satisfied

Input line: In plain terms, does CCOC(=O)C1=C(c2ccccc2)N=c2s/c(=C/c3ccc(Br)cc3)c(=O)n2C1c1ccc(O)cc1 (stereo not given) come in under 60% for growth?
Output line: Not satisfied

Input line: For COc1ccc2nc(SCC(=O)Nc3ccccc3C)[nH]c2c1 , is the recorded growth below the cut-off of 60%?
Output line: Not satisfied

Input line: Does this compound meet the criterion growth < 60%? CCCCn1sc(=O)n(Cc2ccc(CNC(=O)OCc3ccc4c(Cl)cc(Cl)c(O)c4n3)cc2)c1=O
Output line: Not satisfied

Input line: Is it true that growth reported for COc1ccc2c(O)c(/C=C3\N=Nc4ccccc43)oc2c1C[C@H]1CCNC[C@H]1F is less than 60%?
Output line: Satisfied

Input line: Given O=C(CCC(=O)c1nc2ncccc2[nH]1)NN1C(=O)CSC1c1ccc(Cl)cc1 (stereo not given) , is recorded growth strictly lower than 60%?
Output line: Not satisfied

Input line: Is it true that growth reported for CN1CCN(c2ccc3c(c2)nc(NNC(=O)c2cnccn2)c2cccn23)CC1 is less than 60%?
Output line: Satisfied

###

- System: SR leukemia
- assay.summary: NCI-60 one-dose screen, 48 h
- run.parameters: 10 µM unless noted
Compounds without any hit were thinned out: in the full panel of roughly 83,000, 20% have a hit. Activity calls are given as the source filed them. The calls were made as follows: active = growth percent below 10; inactive = the rest.
Your answer must be one of the following: TRUE = active, FALSE = inactive

Input line: What classification did C=C1C(=O)O[C@H]2[C@H]1CC/C(COC(=O)c1cc3cc(F)ccc3[nH]1)=C\CC[C@@]1(C)O[C@@H]21 end up with in this test?
Output line: TRUE

Input line: Each compound tested received a call. Report the one for CN1CCN(c2ccc(NC(=O)c3cncnc3Nc3ccc4c(ccn4Cc4cccc(F)c4)c3)cc2)CC1 .
Output line: FALSE

Input line: For N#Cc1c(-c2ccccc2)nc2c(c(-c3ccccc3)nn2-c2ccccc2)c1-c1ccc(N2CCOCC2)cc1 , which call appears in the assay record?
Output line: FALSE

Input line: // outcome(item) with item = CC(O)c1ncc(/C=C2\SC(=S)N(Cc3ccccc3)C2=O)s1 (centres undefined)
Output line: FALSE

Input line: GET /call?item= COc1ccc(Nc2ncccc2NC(=O)c2cn(Cc3cccc(Oc4ccccc4)c3)nn2)cc1OC returns the recorded outcome of this test.
Output line: FALSE

Input line: Call for entry Cc1ccc(C(=O)c2ccc(CC(=O)N/N=C/c3ccc(O)cc3O)n2C)cc1 :
Output line: FALSE

Input line: Tell me the recorded outcome of this test for C/C(=C(/c1ccc(Cl)cc1)c1ccc(OCCCN(C)C)cc1)c1ccc(Cl)cc1 .
Output line: TRUE

Input line: // outcome(item) with item = COc1ccc(C/C(C)=C(/c2ccc(OCCN3CCCCCC3)cc2)c2ccc(OC(=O)NCc3ccccc3)cc2)cc1
Output line: TRUE

Input line: Record request — test call for C/C(C=O)=C\c1ccc2c(c1)OCO2
Output line: FALSE
